- target-or-test-system: Recombinant SARS-CoV-2 3CL Protease (Severe acute respiratory syndrome coronavirus 2 (2019-nCoV) (SARS-CoV-2), UniProt P0DTD1)
- assay-method-text: biochemical
- Format: biochemical
- cond: 50% SARS-CoV-2 3CL protease inhibitory concentration; read-out: IC50
pIC50: −log10 of the molar value.
measured-property: pIC50

>>> result("Cc1cncc(-n2c(=O)c(-c3ccc(F)c(Cl)c3)c(C3=CC4(CCOCC4)C3)n(CC#N)c2=O)c1")
"> 8.00"
>>> result("N#CCn1c(CCC2(O)CCC2)c(-c2ccc(F)c(F)c2)c(=O)n(-c2cncc(Cl)c2)c1=O")
"> 8.00"
>>> result("N#CCn1c(N2CC(OC(F)(F)F)C2)c(-c2ccc(F)c(Cl)c2)c(=O)n(-c2cnc3cc(F)ccn23)c1=O")
"> 8.00"
>>> result("N#CCn1c(N2CCC(F)(F)CC2)c(-c2cc(F)c(F)c(F)c2)c(=O)n(-c2cncc(Cl)c2)c1=O")
"> 8.00"
>>> result("CCCOc1cc(Cl)cc(-c2c(N3Cc4ccccc4C3)n(CC#N)c(=O)n(-c3cncc(C)c3)c2=O)c1")
"> 8.00"
>>> result("N#CCn1c(Cl)c(-c2ccc(F)c(Cl)c2)c(=O)n(-c2cnc3ccc(F)cn23)c1=O")
"< 7.00"
>>> result("Cc1cc(-n2c(=O)c(-c3cc(Cl)cc(C(F)(F)F)c3)c(N3CCC(C(F)(F)F)CC3)n(CC#N)c2=O)cc(=O)[nH]1")
"7.00 to 8.00"

###

- System: SARS-CoV-2
- assay-method-text: Cytopathic effect (CPE) suppression effect confirmation test using HEK293T/ACE2-TMPRSS2 cells
- Assay type: cell-based
- cond: Severe acute respiratory syndrome coronavirus 2, HEK-293T, 72 h, read-out: EC50 (50% SARS-CoV-2 infected cell death inhibitory concentration), class, HEK293T/ACE2-TMPRSS2 cells, CPE suppression, CellTiter-Glo 2.0 after 3 days culture
pEC50: −log10 of the molar value.
pEC50: recorded values
measured-property: pEC50

>>> result("Cc1ccc(-c2c(Cc3cc(F)c(F)c(F)c3)c(=O)n(-c3cncc(Cl)c3)c(=O)n2CC#N)cc1C")
"> 7.00"
>>> result("N#CCn1c(N2CCC(F)(F)C2)c(-c2ccc(F)c(Cl)c2)c(=O)n(-c2cncc(Cl)c2)c1=O")
"> 7.00"
>>> result("Cc1cncc(-n2c(=O)c(-c3ccc(F)c(Cl)c3)c(N3CC4(CCCO4)C3)n(CC#N)c2=O)n1")
"> 7.00"
>>> result("Cn1cnc(Cn2c(=O)c(Cc3cc(F)c(F)c(F)c3)c(N3Cc4ccccc4C3)n(CC#N)c2=O)n1")
"6.00 to 7.00"
>>> result("Cc1cncc(-n2c(=O)c(-c3ccc(F)c(Cl)c3)c(Cl)n(CC#N)c2=O)c1")
"6.00 to 7.00"
>>> result("N#CCn1c(N2CC3(CCOC3)C2)c(-c2ccccc2)c(=O)n(-c2cncc(Cl)c2)c1=O")
"> 7.00"
>>> result("Cc1cc(-n2c(=O)c(-c3cc(Cl)cc(C(F)(F)F)c3)c(N3CC4(C3)CC(F)(F)C4)n(CC#N)c2=O)cc(=O)[nH]1")
"6.00 to 7.00"

###

- Tested on: SARS-CoV-2
- assay-method-text: Cytopathic effect (CPE) suppression effect confirmation test using HEK293T/ACE2-TMPRSS2 cells
- Assay type: cell-based
- cond: Severe acute respiratory syndrome coronavirus 2, HEK-293T, 72 h, read-out: EC50 (50% SARS-CoV-2 infected cell death inhibitory concentration), class, HEK293T/ACE2-TMPRSS2 cells, CPE suppression, CellTiter-Glo 2.0 after 3 days culture
pEC50: −log10 of the molar value.
Listing of entries alongside the reported pEC50.
measured-property: pEC50

>>> result("N#CCn1c(N2CC3(CCOC3)C2)c(-c2ccc(F)c(Cl)c2)c(=O)n(-c2cncc(Cl)c2)c1=O")
"> 7.00"
>>> result("N#CCn1c(N2CC3(CCOC3)C2)c(Cc2cc(F)c(F)c(F)c2)c(=O)n(-c2cncnc2)c1=O")
"6.00 to 7.00"
>>> result("N#CCn1c(N2CC3(CCOC3)C2)c(-c2ccc(F)c(Cl)c2)c(=O)n(-c2cncc(C(F)(F)F)n2)c1=O")
"> 7.00"
>>> result("Cc1cc(-n2c(=O)c(-c3ccc(F)c(Cl)c3)c(N3C[C@H]4CCCC[C@H]4C3)n(CC#N)c2=O)cc(=O)[nH]1")
"> 7.00"
>>> result("Cc1cncc(-n2c(=O)c(-c3cccc(Cl)c3)c(N3Cc4ccccc4C3)n(CC#N)c2=O)c1")
"> 7.00"
>>> result("Cc1cncc(-n2c(=O)c(-c3ccc(F)c(Cl)c3)c(N3CC(C)(C)C3)n(CC#N)c2=O)n1")
"> 7.00"
>>> result("Cc1cncc(-n2c(=O)c(Oc3cc(F)c(F)c(F)c3)c(-c3cc4ccccc4s3)n(CC#N)c2=O)c1")
"> 7.00"
>>> result("Cc1cncc(-n2c(=O)c(Oc3cc(F)c(F)c(F)c3)c(Oc3cc(F)c(F)c(F)c3)n(CC#N)c2=O)c1")
"5.30 to 6.00"
>>> result("N#CCn1c(N2CC3CCC(CC3)C2)c(Cc2cc(F)c(F)c(F)c2)c(=O)n(-c2cnc3ccccn23)c1=O")
"> 7.00"
>>> result("N#CCn1c(N2Cc3ccccc3C2)c(Cc2cc(F)c(F)c(F)c2)c(=O)n(C2CCNC(=O)C2)c1=O (racemic)")
"5.30 to 6.00"
>>> result("Cc1cc(-n2c(=O)c(-c3cc(F)c(F)c(Cl)c3)c(N3CC4(C3)CC(F)(F)C4)n(CC#N)c2=O)cc(=O)[nH]1")
"6.00 to 7.00"
>>> result("Cc1cncc(-n2c(=O)c(-c3ccc(F)c(Cl)c3)c(-c3cnc(C)nc3)n(CC#N)c2=O)c1")
"> 7.00"
>>> result("Cc1cncc(-n2c(=O)c(-c3ccc(F)c(Cl)c3)c(N3CC4(CCOC4)C3)n(CC#N)c2=O)n1")
"> 7.00"
>>> result("Cc1cncc(-n2c(=O)c(-c3ccc(F)c(Cl)c3)c(N3Cc4cccnc4C3)n(CC#N)c2=O)c1")
"> 7.00"

###

The entries below are paired with their reported pIC50.
- target-or-test-system: Recombinant SARS-CoV-2 3CL Protease (Severe acute respiratory syndrome coronavirus 2 (2019-nCoV) (SARS-CoV-2))
- assay-method-text: biochemical
- Format: biochemical
- cond: 50% SARS-CoV-2 3CL protease inhibitory concentration; read-out: IC50
pIC50: −log10 of the molar value.
measured-property: pIC50

>>> result("Cc1cncc(-n2c(=O)c(-c3ccc(F)c(Cl)c3)c(Oc3cccc4[nH]ccc34)n(CC#N)c2=O)c1")
"> 8.00"
>>> result("N#CCn1c(N2CC3(CCOC3)C2)c(C2=CCCCC2)c(=O)n(-c2cncc(Cl)c2)c1=O")
"> 8.00"
>>> result("Cc1ccc(-c2c(-c3ccc(F)c(Cl)c3)c(=O)n(-c3cncc(C)c3)c(=O)n2CC#N)cc1")
"> 8.00"
>>> result("CN1CCN(c2c(-c3ccc(F)c(Cl)c3)c(=O)n(-c3cncc(Cl)c3)c(=O)n2CC#N)C1=O")
"7.00 to 8.00"

###

pIC50 by entry:
- target-or-test-system: Recombinant SARS-CoV-2 3CL Protease (Severe acute respiratory syndrome coronavirus 2 (2019-nCoV) (SARS-CoV-2))
- assay-method-text: biochemical
- Assay type: biochemical
- cond: 50% SARS-CoV-2 3CL protease inhibitory concentration; read-out: IC50
pIC50: −log10 of the molar value.
measured-property: pIC50

>>> result("Cc1coc(-c2c(-c3ccc(F)c(Cl)c3)c(=O)n(-c3cncc(Cl)c3)c(=O)n2CC#N)n1")
"> 8.00"
>>> result("N#CCn1c(N2CC3(C2)CC(F)(F)C3)c(-c2ccc(F)c(Cl)c2)c(=O)n(-c2cncc(F)c2)c1=O")
"> 8.00"
>>> result("N#CCn1c(N2CC3(CCOC3)C2)c(Cc2cc(F)c(F)c(F)c2)c(=O)n(-c2cnc3cc(F)ccn23)c1=O")
"7.00 to 8.00"
>>> result("N#CCn1c(N2CC(O)(c3ncccn3)C2)c(-c2ccc(F)c(C(F)F)c2)c(=O)n(-c2cncc(C#N)c2)c1=O")
"> 8.00"
>>> result("Cc1cncc(-n2c(=O)c(-c3ccc(F)c(Cl)c3)c(N3CC4(CCOC4)C3)n(CC#N)c2=O)n1")
"> 8.00"
>>> result("Cc1cncc(-n2c(=O)c(-c3ccc(F)c(Cl)c3)c(-c3cnc4ccccc4c3)n(CC#N)c2=O)c1")
"> 8.00"
>>> result("Cc1cncc(-n2c(=O)c(Cc3cc(F)c(F)c(F)c3)c(CCCO)n(CC#N)c2=O)c1")
"7.00 to 8.00"
